The values you see were collected from the supplement of paper PMC7125110.

B1: glmS ribozyme (parent)
chain: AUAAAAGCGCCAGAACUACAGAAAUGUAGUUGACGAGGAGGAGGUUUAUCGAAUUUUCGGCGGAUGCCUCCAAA

Variants of: B1
Test: self-cleavage kobs at 2500 uM GlcN6P; higher = faster cleavage; RNA array
Conditions: with glucosamine-6-phosphate
Variants at the floor of the assay were thinned out.
Measured Metric: self-cleavage kobs at 2500 uM GlcN6P

According to the records, this variant A33G G43U G59U A64G displays self-cleavage kobs at 2500 uM GlcN6P of < 1e-05 s⁻¹

According to the records, this variant G63U U65G displays self-cleavage kobs at 2500 uM GlcN6P of < 1e-05 s⁻¹

According to the records, this variant G9A G37A displays self-cleavage kobs at 2500 uM GlcN6P of < 1e-05 s⁻¹

According to the records, this variant C10G A53C A64G displays self-cleavage kobs at 2500 uM GlcN6P of < 1e-05 s⁻¹

According to the records, this variant G35C A42U U55A C58G displays self-cleavage kobs at 2500 uM GlcN6P of < 1e-05 s⁻¹

According to the records, this variant A6C A39U G41C A52U displays self-cleavage kobs at 2500 uM GlcN6P of < 1e-05 s⁻¹

According to the records, this variant G37C G43C A52C displays self-cleavage kobs at 2500 uM GlcN6P of < 1e-05 s⁻¹

According to the records, this variant G9A C58G U65C displays self-cleavage kobs at 2500 uM GlcN6P of < 1e-05 s⁻¹

According to the records, this variant U30A G35A displays self-cleavage kobs at 2500 uM GlcN6P of < 1e-05 s⁻¹

According to the records, this variant G7A U30C G60U A64C displays self-cleavage kobs at 2500 uM GlcN6P of < 1e-05 s⁻¹

According to the records, this variant G43U U49C displays self-cleavage kobs at 2500 uM GlcN6P of < 1e-05 s⁻¹

According to the records, this variant U31G G37C G38C displays self-cleavage kobs at 2500 uM GlcN6P of < 1e-05 s⁻¹

According to the records, this variant G9C U49A U54A C67A displays self-cleavage kobs at 2500 uM GlcN6P of < 1e-05 s⁻¹

According to the records, this variant G35U U45C G51C G59U displays self-cleavage kobs at 2500 uM GlcN6P of < 1e-05 s⁻¹

According to the records, this variant A36G G41A C67U displays self-cleavage kobs at 2500 uM GlcN6P of < 1e-05 s⁻¹

According to the records, this variant C61U G66C displays self-cleavage kobs at 2500 uM GlcN6P of < 1e-05 s⁻¹

According to the records, this variant U45A U56C displays self-cleavage kobs at 2500 uM GlcN6P of 0.00259 s⁻¹

According to the records, this variant G38C A42C displays self-cleavage kobs at 2500 uM GlcN6P of < 1e-05 s⁻¹

According to the records, this variant A42G A64G displays self-cleavage kobs at 2500 uM GlcN6P of 0.0422 s⁻¹

According to the records, this variant A53C U69G displays self-cleavage kobs at 2500 uM GlcN6P of 4.25e-05 s⁻¹

According to the records, this variant A39C U45C displays self-cleavage kobs at 2500 uM GlcN6P of 0.000214 s⁻¹

According to the records, this variant G13C G44C A53U displays self-cleavage kobs at 2500 uM GlcN6P of < 1e-05 s⁻¹

According to the records, this variant U46G C71U displays self-cleavage kobs at 2500 uM GlcN6P of 0.00497 s⁻¹

According to the records, this variant A48G C58G G63A C70A displays self-cleavage kobs at 2500 uM GlcN6P of 7.77e-05 s⁻¹
